# METHOD DESCRIPTION: in vitro
# CONDITION PARAMETERS: both, human, s9, pH 7.4
PROPERTY NAME: half-life at 1 μM (min)
One number for each entry, in min.

1) Cc1ccc(NC(=O)C(C)Sc2nc3ccccc3n2C(=O)c2ccccc2)c(Cl)c1 (centres unmarked) [JMN5-166] :: 5

Now consider the entry below.
IN: Give half-life at 1 μM for the following molecule: Cc1ccc(NC(=O)C(C)Sc2nc3ccccc3n2S(=O)(=O)c2ccccc2)c(Cl)c1 (centres unmarked) [JMN5-165]
OUT: 38

###

Field: EC50. Provide a value for each of the molecules that follow.
# Test system: MeV-Alaska
# METHOD DESCRIPTION: Viral CPE-reduction assay
# CONDITION PARAMETERS: Measles morbillivirus, read-out: EC50, suppression of viral cytopathic effect (CPE), CPE

// below: answered molecules
1. Cc1ccc(NC(=O)C(C)Sc2nc3ccccc3n2C2CCNCC2)c(Cl)c1 (centres unmarked) [drawing 219] :: > 75000 nM
2. Cc1ccc(NC(=O)C(C)Sc2nc3ccccc3n2C2CCN(C)CC2)c(Cl)c1 (centres unmarked) [drawing 218] :: 1500 nM

// input: 3 molecules below; output: EC50 for each
1. Cc1ccc(NC(=O)C(C)Sc2nc3ccccc3n2C2CCCCC2)c(Cl)c1 (centres unmarked) [drawing 216]
2. Cc1ccc(NC(=O)C(C)Sc2nc3ccccc3n2-c2cccc(CCN3CCCCC3)c2)c(Cl)c1 (centres unmarked)
3. Cc1ccc(NC(=O)C(C)Sc2nc3ccccc3n2CC2CCN(Cc3ccc(F)cc3)CC2)c(Cl)c1 (centres unmarked)

OUT:
1: 290 nM; 2: 1520 nM; 3: 1180 nM
